target: Lysine-specific demethylase 4E (Homo sapiens); assay: qHTS Assay for Inhibitors of Human Jumonji Domain Containing 2E (JMJD2E); conditions: JMJD2E catalytic domain, FDH-coupled NADH fluorescence (FDH is formaldehyde dehydrogenase); series mostly up to 57.1 µM; further: nearly all actives have a fitted effect of over 50% in size
Among all 230,000 compounds or so, about 3,600 (1.6%) were called active. About 15% were inconclusive and are not listed. The call rests on the fitted dose curve; in most records, active means well fitted inhibition curve with a large enough effect (not every such curve was filed as active); inconclusive means small, poorly fitted or top-dose-only effect, or another doubt; inactive means no such curve, though single readings can be large or run the other way. The sample as a whole holds a higher share of actives than the screen did.
Outcome (select one): class 1 = active, class 0 = inactive

Worked examples follow.
CCCn1nc(C(=O)N2CCCc3ccccc32)c2ccccc2c1=O ... class 0
CCCN(CCc1ccccc1)C1CCc2c(O)cccc2C1 (configuration not stated) ... class 0
O=C1C(c2ccccn2)=[N+]([O-])c2ccccc21 ... class 1
CN1CCN(c2ncc3c(n2)CC(c2ccccc2F)CC3=O)CC1 (configuration not stated) ... class 0
CCC1=C(C(=O)OC)C(c2cc(OC)ccc2OC)C(C#N)=C(N)O1 (configuration not stated) ... class 0
O=C(CSc1nc2ccccc2o1)N/N=C/c1ccccc1C(=O)O ... class 0
CCCN(C/C=C\I)[C@@H]1CCc2cccc(O)c2C1 ... class 1
Cc1ccc(OCc2n[nH]c(=S)n2-c2ccc(C)cc2)cc1 ... class 0

Prompt line: Hello, I am checking results. What call was entered for Cc1cc(N2CCN(c3ccc(F)cc3)CC2)n2ncnc2n1 ?
Response line: class 0
